Potency for assorted compounds
# STUDY_SYSTEM: Tyrosine-protein kinase Yes (Homo sapiens) (UniProt P07947)
# Sequence (P07947 whole entry, looked up): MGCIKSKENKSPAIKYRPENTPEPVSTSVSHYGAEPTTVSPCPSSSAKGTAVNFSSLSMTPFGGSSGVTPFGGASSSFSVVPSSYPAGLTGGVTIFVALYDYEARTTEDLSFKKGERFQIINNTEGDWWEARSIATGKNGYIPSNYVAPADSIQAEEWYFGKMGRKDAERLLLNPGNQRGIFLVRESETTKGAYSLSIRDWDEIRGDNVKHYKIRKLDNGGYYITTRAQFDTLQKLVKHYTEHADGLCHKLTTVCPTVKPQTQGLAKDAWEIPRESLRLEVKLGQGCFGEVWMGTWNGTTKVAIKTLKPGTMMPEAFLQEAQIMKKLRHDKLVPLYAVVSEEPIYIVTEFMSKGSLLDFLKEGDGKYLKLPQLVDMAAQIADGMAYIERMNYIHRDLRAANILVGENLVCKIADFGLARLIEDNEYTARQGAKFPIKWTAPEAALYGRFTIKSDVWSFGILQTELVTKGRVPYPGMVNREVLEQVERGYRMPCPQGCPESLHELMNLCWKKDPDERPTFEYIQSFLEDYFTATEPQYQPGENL
# EXPERIMENTAL_DETAILS: qHTS for small molecule inhibitors of Yes1 kinase: Confirmatory screen on the cherrypicks
# CONDITION_SUMMARY: Recombinant Yes1, ADP-Glo luminescence, poly(E4Y) substrate
The source made the active and inactive calls. Calls follow the shape of the dose curve; as a rule, active = well fitted inhibition curve with a large enough effect; inactive = flat fitted curve, though single readings scatter.

Some entries whose results are on file:
CN1CCC(CNc2ccc3ncc(-c4cccc(OC(F)(F)F)c4)n3n2)CC1
2770 nM (active)
CC(NCc1ccc2c(c1)nc(NC(=O)c1ccc(-c3cn[nH]c3)s1)n2CC(C)(C)O)C(C)(C)C (stereo not given)
1.7 nM (active)
NC(=O)Nc1cc(-c2ccc(CN3CCOCC3)c(F)c2)sc1C(=O)N[C@H]1CCCNC1
1.7 nM (active)
CCN(CC)CCOc1ccc(Nc2ncc3cc(-c4c(Cl)cccc4Cl)c(=O)n(C)c3n2)cc1
0.4 nM (active)

Query compound follows.
// returns reported Potency for input CC(C)Oc1cc(Nc2nc(N[C@@H](C)c3ccc(F)cn3)ncc2Cl)[nH]n1
39.1 nM (active)
